B1: 1ZHC (parent)
chain: HEFRDEISVLKANNPHFDKIFEKHNQLDDDIKTAEQQNASDAEVSHMKKQKLKLKDEIHSMIIEYREK

# Variants of: B1
# Test protocol: folding stability dG (cDNA display proteolysis); higher = more stable
# Condition: PBS, room temperature
Endpoint: folding stability dG (kcal/mol)
Numeric only. Scale: kcal/mol

{"Mut": "S40E", "Recorded value": 0.469}
{"Mut": "A42W", "Recorded value": 0.189}

*Q* Tell me the measured folding stability dG of `H1P` , please.
*A* 0.497

*Q* Tell me the measured folding stability dG of `A12Q` , please.
*A* 0.395

*Q* Tell me the measured folding stability dG of `D30S` , please.
*A* 0.524

*Q* Tell me the measured folding stability dG of `Q37M` , please.
*A* 0.926

*Q* Tell me the measured folding stability dG of `P15V` , please.
*A* 0.356

*Q* Tell me the measured folding stability dG of `A39M` , please.
*A* 0.936

*Q* Tell me the measured folding stability dG of `I31V` , please.
*A* -0.196

*Q* Tell me the measured folding stability dG of `A42Y` , please.
*A* 0.635

*Q* Tell me the measured folding stability dG of `S40L` , please.
*A* 0.393

*Q* Tell me the measured folding stability dG of `K55D` , please.
*A* 0.359

*Q* Tell me the measured folding stability dG of `K68Q` , please.
*A* 0.861

*Q* Tell me the measured folding stability dG of `N25W` , please.
*A* 0.642

*Q* Tell me the measured folding stability dG of `E43F` , please.
*A* 1.07
